The entries below are paired with their reported total protein half-life in vivo.
# protocol.summary: total protein half-life in vivo (active degradation + dilution); higher = more stable protein
# condition.parameters: wild type E. coli NCM3722; growth: N-lim chemostat; doubling time 12 h
Write the number in h without appending the unit.

# example entries with known answers
sequence.content | total protein half-life in vivo (h)
MTLRKILALTCLLLPMMASAHQFETGQRVPPIGITDRGELVLDKDQFSYKTWNSAQLVGKVRVLQHIAGRTSAKEKNATLIEAIKSAKLPHDRYQTTTIVNTDDAIPGSGMFVRSSLESNKKLYPWSQFIVDSNGVALGAWQLDEESSAVVVLDKDGRVQWAKDGALTPEEVQQVMDLLQKLLK | 7.61
MRKQWLGICIAAGMLAACTSDDGQQQTVSVPQPAVCNGPIVEISGADPRFEPLNATANQDYQRDGKSYKIVQDPSRFSQAGLAAIYDAEPGSNLTASGEAFDPTQLTAAHPTLPIPSYARITNLANGRMIVVRINDRGPYGNDRVISLSRAAADRLNTSNNTKVRIDPIIVAQDGSLSGPGMACTTVAKQTYALPAPPDLSGGAGTSSVSGPQGDILPVSNSTLKSEDPTGAPVTSSGFLGAPTTLAPGVLEGSEPTPAPQPVVTAPSTTPATSPAMVTPQAVSQSASGNFMVQVGAVSDQARAQQYQQQLGQKFGVPGRVTQNGAVWRIQLGPFASKAEASTLQQRLQTEAQLQSFITTAQ | 13.4

Query: What measured total protein half-life in vivo goes with "MKKLQIAVGIIRNENNEIFITRRAADAHMANKLEFPGGKIEMGETPEQAVVRELQEEVGITPQHFSLFEKLEYEFPDRHITLWFWLVERWEGEPWGKEGQPGEWMSLVGLNADDFPPANEPVIAKLKRL" ?
Reply: 6.87
